B1: glmS ribozyme (parent)
chain: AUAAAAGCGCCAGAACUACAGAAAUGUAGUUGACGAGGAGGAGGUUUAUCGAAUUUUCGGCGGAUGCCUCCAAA

Variants of: B1
Assay: self-cleavage kobs at 2500 uM GlcN6P; higher = faster cleavage; RNA array
Conditions: with glucosamine-6-phosphate
Variants at the floor of the assay were thinned out.
Please note: Fulfilled applies when self-cleavage kobs at 2500 uM GlcN6P is 0.0002 s⁻¹ or greater, and Not fulfilled applies otherwise.

Record excerpt, results attached:
- item sequence: "AUAAAAGCGCCAGAACUACAGAAAUGUAGUUGACGAGGAGGUGGUUAAACGAAUUUUCGGCGGAUGCCUCCAAA [A42U U47A U49A]"
  label value: "Not fulfilled"
- item sequence: "AUAAAAGCGCCAGAACUACAGAAAUGUAGUCGACGAGGAGGAGGUUUAUCGAAUUUUCGGCGGGUGCCUCCAAA [U31C A64G]"
  label value: "Fulfilled"
- item sequence: "AUAAAAGCGCCAGAACUACAGAAAUGUAGUUGACGAGGAGGAGGUUCAUCGAAUUUUCGGCGGAAGCCUCCAAA [U47C U65A]"
  label value: "Fulfilled"
- item sequence: "AUAAAAGCGCUAGAACUACAGAAAUGUAGUUGACGAGGAGGAGGUUUAUCGAAUUUUCGGCGGAUUCCUCCAAA [C11U G66U]"
  label value: "Not fulfilled"
- item sequence: "AUAAAAGCGCCGGAACUACAGAAAUGUAAUUGACGAGGAGCAGGUUUAUCGAAUUUUCGGCGGAUGCCUCCAAA [A12G G29A G41C]"
  label value: "Not fulfilled"
- item sequence: "AUAAAAGCGCCUGAACUACAGAAAUGUAGUUGACGAGGAGGAGCUUUAUCGAAUUUUCGGGGGAUGCCUCCAAA [A12U G44C C61G]"
  label value: "Not fulfilled"

Entry AUAAAAGCGUCAGAACUACAGAAAUGUAGUUGAAGAGGAGGAGGUUUAUGGAAUUUUCGGCGGAAGCCUCCAAA [C10U C34A C50G U65A] : is its self-cleavage kobs at 2500 uM GlcN6P no less than 0.0002 s⁻¹?
Not fulfilled

Entry AUAAAAGCGCCAGAACUACAGAAAUGUAGUUGGCGAGGAGGAGGUGUAUCGAAUUUUCGGCGGAUGCCUUCAAA [A33G U46G C70U] : is its self-cleavage kobs at 2500 uM GlcN6P no less than 0.0002 s⁻¹?
Not fulfilled

Entry AUAAAAGCGCCACAUCUACAGAAAUGUAGUUGACGAGGAGGAGGUUUAUCGAAUUUUCGGGGGAUGCCUCCAAA [G13C A15U C61G] : is its self-cleavage kobs at 2500 uM GlcN6P no less than 0.0002 s⁻¹?
Not fulfilled

Entry AUAAAAGCGCCAGAACUACAGAAAUGUAGUUGACGAGGAGGAGGUUUAUCGGAUUUACGGCGGAUGCCUCCAAA [A52G U57A] : is its self-cleavage kobs at 2500 uM GlcN6P no less than 0.0002 s⁻¹?
Fulfilled

Entry AUAAAAGCGCCAGAACUACAGAAAUGUAGUUGACUAAGAGGAGGUUUAUCGAAUUUUCGGCGGAUGCCUCCAAA [G35U G37A] : is its self-cleavage kobs at 2500 uM GlcN6P no less than 0.0002 s⁻¹?
Not fulfilled

Where do these numbers come from? They come from the supplement of paper PMC7125110.
